study.system: WT RBD (SARS-CoV-2 Wuhan-Hu-1 spike receptor binding domain) (SARS-CoV-2 (Wuhan-Hu-1), UniProt P0DTC2)
method: BLI
test.settings: both partners purified
pKd: −log10 of the molar value.
List of pKd values.
parameter: pKd

binder="C3102 (antibody, V domains shown, source: 293-6E cells, transfected, purified (Protein G Sepharose)) VH: QVQLVQSGAEVKKPGSSVKVSCKASGGTFRRYAISWVRQAPGQGLEWMGGIIPIAGAADYAQKFQARVTITADESTSTAYLELSSLRSEDTAVYYCAREISYCSGAPCYAGYYDYGMDVWGQGTTVTVSS VL: QSVLTQPPSASGTPGQRVTISCSGNSSNIGSNSVNWYQQLPGTAPKLLIKSTNQRPSGVPDRFSGSKSGTSASLAISGLQSEDEADYYCAAWEDVLNAVVFGGGTMLTV" observed_value=9.19
binder="C1040 (antibody, V domains shown, source: 293-6E cells, transfected, purified (Protein G Sepharose)) VH: QVQLVESGGGVVQPGRSLRLSCAASGFSFINYNMHWVRQAPGKGLEWVAVIWYDGSNKYYADSVKGRFTISRDNSKNTLYLQMNSLRVEDTAVYYCARDPAITEAEIDYWGQGTLVTVSS VL: DVVMTQSPLSLPVTLGQAASISCRSSQSLVHSDGNTYLNWFQQRPGQSPRRLIYRVSNRDSGVPDRFSASGSGTDFTLKISRVEAEDVGVYYCMQGTHWPWTFGQGTKVEIK" observed_value=8.68
binder="C022 (antibody, V domains shown, source: 293-6E cells, transfected, purified (Protein G Sepharose)) VH: QVQLQESGPGLVKPSETLSVTCTVSGGSISSSRYYWGWIRQPPGKGLEWIGSIYYSGSTYYNPSLKSRVTISVDTSKNQFSLKLSSVTAADTAVYYCARHAAAYYDRSGYYFIEYFQHWGQGTLVTVSS VL: DIQMTQSPSTLSASVGDSVTITCRASQSISSWLAWYQQKPGKAPKLLIYKASSLESGVPSRFSGSGSGTEFTLTISSLQPDDFATYYCQQYNNYRYTFGQGTKLEIK" observed_value=8.50
binder="C3060 (antibody, V domains shown, source: 293-6E cells, transfected, purified (Protein G Sepharose)) VH: QVQLQESGPGLLKPSQTLSLICTVSGGSISSGDYYWNWIRQTPGKGLEWIGYIYYSGITYYNPSLKSRLSISLDTPKNQFSLKLTSVTAADTAVYYCATGPPTVTTENFDNWGQGTLVTVSS VL: QSVLTQPPSVSAAPGQKVTISCSGSSSNIGNYYVSWYQQLPGTAPQLVIYDNNKRPSGIPDRFSGSKSGTSATLAITGLQTGDEADYYCGTWDASLNAGVFGGGTRLTVL" observed_value=8.96
binder="C996 (antibody, V domains shown, source: 293-6E cells, transfected, purified (Protein G Sepharose)) VH: EVQLVESGGGLVQPGGSLRLSCVASGFTSTNYDMHWVRQAPGRGLQWVSSIGTAGDTYYPGSVRGRFTISRENAKNSLDLQMNSLRVGDTAVYYCARGQRGYYDRSGYYWGWRAFDIWGQGTMVTVSS VL: SYELTQPPSVSVAPGQTARITCGGNNIGNKSVYWYQQKPGQAPVLVVYDDSGRPSGIPERFSGSNSANTATLTISRVEAGDEADYYCQVWDNNSDQFGGGTKLTVL" observed_value=8.43

Where do the numbers come from? From paper PMC9849103.
